Recorded values, source patent US20030119023.

Listed below: Kd values for each entry.
subjectOfTest: 3x2F ZGS (artificial)
Sequence (chain, as listed by the source): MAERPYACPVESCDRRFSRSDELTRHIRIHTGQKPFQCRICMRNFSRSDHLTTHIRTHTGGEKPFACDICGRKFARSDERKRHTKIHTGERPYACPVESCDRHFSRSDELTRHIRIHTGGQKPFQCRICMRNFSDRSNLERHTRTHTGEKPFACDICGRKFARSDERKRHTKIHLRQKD
methodSummary: EMSA; apparent Kd
experimentalConditions: label: 32P
Your answer should be a plain number; it is taken to be in nM.

Solved entries:
1) bsF (1234/56 in Table 5) (dsDNA) DNA 1: GCGGACTGCGGCGTGGGCG DNA 2: CGCCCACGCCGCAGTCCGC; 0.054
2) bsG (12/3456 in Table 5) (dsDNA) DNA 1: GCGGACGCGGCGTTGGGCG DNA 2: CGCCCAACGCCGCGTCCGC; 0.077

With those in mind, consider the next binder.
Output measured Kd for this item: bsD (12/34/56) (dsDNA) DNA 1: GCGGACTGCGGCGTTGGGCG DNA 2: CGCCCAACGCCGCAGTCCGC
18
